Values were extracted from patent US20230203146A1.

- measurement.target: FLAG tagged human Ang2 (Alexis Biochemicals) (human) (UniProt O15123)
- Sequence (O15123 19-496): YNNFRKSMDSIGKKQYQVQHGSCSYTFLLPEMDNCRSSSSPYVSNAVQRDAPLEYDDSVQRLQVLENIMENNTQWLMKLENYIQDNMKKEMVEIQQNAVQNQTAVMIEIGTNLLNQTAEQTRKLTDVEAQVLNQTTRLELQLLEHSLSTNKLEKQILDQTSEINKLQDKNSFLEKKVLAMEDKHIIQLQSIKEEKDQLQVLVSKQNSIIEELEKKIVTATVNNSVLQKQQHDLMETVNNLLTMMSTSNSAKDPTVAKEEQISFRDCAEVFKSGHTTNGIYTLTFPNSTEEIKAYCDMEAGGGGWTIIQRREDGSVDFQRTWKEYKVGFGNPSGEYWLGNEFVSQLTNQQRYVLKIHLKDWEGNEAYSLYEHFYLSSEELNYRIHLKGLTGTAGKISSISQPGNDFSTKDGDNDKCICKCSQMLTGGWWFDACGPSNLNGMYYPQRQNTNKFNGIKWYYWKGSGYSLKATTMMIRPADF
- procedure.summary: competition ELISA, FLAG-hAng2 (0.02 nM) on coated hTie2/Fc
This listing pairs binders with measured IC50.

VHH 6H05 (VHH, not shown: small tags and cut ends) VHH: EVQLVESGGGLVQAGGSLRLSCAASGFTFDDYAIGWFRQAPGKEREGVSCISSSDGSTAYADSVKGRFTISSDNAKNTVYLQMNSLKPEDTAVYYCTAVPATRRTPQMVAANVCWLAEYEYDYWGQGTQVTVSS; 5.3 nM

Please examine the following record next.
Please give the documented IC50 of VHH 1D01 (VHH, not shown: small tags and cut ends) VHH: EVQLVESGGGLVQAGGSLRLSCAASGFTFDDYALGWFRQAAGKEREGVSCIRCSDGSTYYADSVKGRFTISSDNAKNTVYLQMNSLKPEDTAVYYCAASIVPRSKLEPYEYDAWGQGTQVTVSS
3.4 nM
